target: UniProt:P11388; assay: Inhibition of human DNA topoisomerase 2 alpha-mediated DNA relaxation at 100 uM incubated for 30 mins using pBR322 DNA substrate by ethidium bromide dye-based agarose gel electrophoresis
Sequence (P11388 whole entry): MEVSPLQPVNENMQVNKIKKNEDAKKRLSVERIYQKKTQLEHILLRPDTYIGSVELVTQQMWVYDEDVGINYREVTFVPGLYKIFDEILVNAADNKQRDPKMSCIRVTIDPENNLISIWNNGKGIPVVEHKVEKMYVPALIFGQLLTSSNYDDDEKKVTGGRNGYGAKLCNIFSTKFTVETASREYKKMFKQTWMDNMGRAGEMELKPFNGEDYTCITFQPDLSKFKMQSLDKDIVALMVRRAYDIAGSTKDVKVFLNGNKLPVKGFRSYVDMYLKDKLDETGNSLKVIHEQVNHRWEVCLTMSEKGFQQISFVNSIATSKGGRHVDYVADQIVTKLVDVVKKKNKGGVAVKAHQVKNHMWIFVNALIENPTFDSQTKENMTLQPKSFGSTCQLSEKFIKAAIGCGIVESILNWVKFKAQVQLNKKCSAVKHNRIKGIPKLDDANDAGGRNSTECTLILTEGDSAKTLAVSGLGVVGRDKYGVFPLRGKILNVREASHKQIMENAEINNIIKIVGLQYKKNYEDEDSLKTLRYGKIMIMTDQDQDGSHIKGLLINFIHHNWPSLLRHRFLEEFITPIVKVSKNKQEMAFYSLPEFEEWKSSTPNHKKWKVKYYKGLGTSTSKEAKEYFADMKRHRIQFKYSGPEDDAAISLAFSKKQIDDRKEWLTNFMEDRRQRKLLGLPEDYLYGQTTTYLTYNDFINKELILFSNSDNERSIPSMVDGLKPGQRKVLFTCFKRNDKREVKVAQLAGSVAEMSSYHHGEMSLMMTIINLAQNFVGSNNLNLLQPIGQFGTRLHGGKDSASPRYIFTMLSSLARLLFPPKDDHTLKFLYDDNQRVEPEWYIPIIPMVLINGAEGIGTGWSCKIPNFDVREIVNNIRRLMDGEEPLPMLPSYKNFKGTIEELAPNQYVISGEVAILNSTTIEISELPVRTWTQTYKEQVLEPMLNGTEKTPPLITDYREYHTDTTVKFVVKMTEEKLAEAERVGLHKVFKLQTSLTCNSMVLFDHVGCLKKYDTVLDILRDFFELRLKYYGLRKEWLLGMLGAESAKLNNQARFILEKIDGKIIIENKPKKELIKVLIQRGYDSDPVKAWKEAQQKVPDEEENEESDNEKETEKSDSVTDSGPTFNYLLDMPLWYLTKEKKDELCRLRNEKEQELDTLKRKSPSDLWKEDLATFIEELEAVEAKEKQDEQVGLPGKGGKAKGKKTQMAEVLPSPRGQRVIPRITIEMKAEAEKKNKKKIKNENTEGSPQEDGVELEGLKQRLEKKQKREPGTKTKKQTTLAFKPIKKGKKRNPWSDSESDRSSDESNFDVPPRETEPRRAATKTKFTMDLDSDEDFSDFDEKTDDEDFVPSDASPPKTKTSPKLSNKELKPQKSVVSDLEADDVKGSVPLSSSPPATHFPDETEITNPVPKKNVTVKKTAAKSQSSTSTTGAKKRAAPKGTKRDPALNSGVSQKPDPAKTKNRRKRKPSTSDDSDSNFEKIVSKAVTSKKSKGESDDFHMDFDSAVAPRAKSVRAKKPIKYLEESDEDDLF
quantity: inhibition (%)

In [3]: df
Out[3]:
                               query_smiles  units_symbol  numeric_readout
0  COc1ccc(-c2cc3ccccc3c(-c3ccc(O)cc3)n2)cc1             %                0
1  COc1ccc(-c2cc3cc(C)ccc3c(-c3cccc(N)c3)n2)c(C)c1             %              4.1
2  COc1cc(OC)cc(-c2cc3ccccc3c(-c3cccc(OC)c3)n2)c1             %             16.7
3  COc1cc(OC)cc(-c2cc3ccccc3c(-c3cccc(N)c3)n2)c1             %             23.6
4  COc1ccc(-c2cc3cc(C)ccc3c(-c3ccc(OCCN(C)C)cc3)n2)cc1OC             %             75.8
5  COc1cc(OC)cc(-c2cc3ccc(N(C)C)cc3c(-c3cccc(N)c3)n2)c1             %              2.5
6  COc1ccc(-c2cc3cc(C)ccc3c(-c3ccc(O)cc3)n2)cc1OC             %             36.5
7  COc1ccc(-c2cc3cc(C)ccc3c(-c3cccc(OCCCN(C)C)c3)n2)c(C)c1             %             40.9
8  COc1ccc(-c2cc3ccccc3c(-c3cccc(N)c3)n2)cc1             %              7.7

---

# Ratio per record follows
biological target: DNA topoisomerase 1 (Homo sapiens) (UniProt P11387); test: Inhibition of human recombinant DNA topoisomerase 1-mediated DNA relaxation at 20 uM incubated for 30 mins using pBR322 DNA substrate by ethidium bromide dye-based agarose gel electrophoresis relative to control camptothecin
Sequence (P11387 whole entry): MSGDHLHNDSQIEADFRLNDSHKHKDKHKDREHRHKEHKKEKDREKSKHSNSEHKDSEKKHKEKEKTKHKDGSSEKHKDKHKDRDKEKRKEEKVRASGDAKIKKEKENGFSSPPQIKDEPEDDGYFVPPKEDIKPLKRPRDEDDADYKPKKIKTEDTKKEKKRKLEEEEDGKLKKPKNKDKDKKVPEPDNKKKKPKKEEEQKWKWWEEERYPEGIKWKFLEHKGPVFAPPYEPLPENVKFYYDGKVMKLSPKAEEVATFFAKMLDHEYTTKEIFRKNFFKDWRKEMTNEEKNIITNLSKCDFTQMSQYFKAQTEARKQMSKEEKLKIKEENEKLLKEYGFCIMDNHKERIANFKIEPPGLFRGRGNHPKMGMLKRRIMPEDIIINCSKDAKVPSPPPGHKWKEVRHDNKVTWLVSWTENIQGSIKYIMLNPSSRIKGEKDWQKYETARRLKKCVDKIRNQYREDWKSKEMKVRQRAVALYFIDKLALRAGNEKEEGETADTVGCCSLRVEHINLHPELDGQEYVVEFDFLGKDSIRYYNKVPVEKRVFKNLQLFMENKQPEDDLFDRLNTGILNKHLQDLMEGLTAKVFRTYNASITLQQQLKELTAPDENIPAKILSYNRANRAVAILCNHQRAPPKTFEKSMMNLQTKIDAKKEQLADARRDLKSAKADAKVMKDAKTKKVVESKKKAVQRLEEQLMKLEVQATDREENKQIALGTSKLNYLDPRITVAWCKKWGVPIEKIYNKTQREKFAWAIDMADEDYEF
quantity: Ratio

                               query_smiles  quantity  numeric_readout
0  COc1ccc(-c2cc3cc(C)ccc3c(-c3cccc(OCCCN(C)C)c3)n2)c(C)c1     Ratio                0
1  COc1ccc(-c2cc3ccccc3c(-c3cccc(OCCCN(C)C)c3)n2)cc1     Ratio             0.38
2  COc1ccc(-c2cc3ccccc3c(-c3cccc(OC)c3)n2)cc1     Ratio                0
3  COc1ccc(-c2cc3cc(C)ccc3c(-c3cccc(O)c3)n2)c(C)c1     Ratio             2.46
4  COc1cc(OC)cc(-c2cc3ccc(N(C)C)cc3c(-c3cccc(N)c3)n2)c1     Ratio              2.5
5  COc1ccc(-c2cc3cc(C)ccc3c(-c3cccc(N)c3)n2)c(C)c1     Ratio             2.53

---

test system: T47D; assay: Cytotoxicity against human T47D cells after 72 hrs by cell counting kit-8 analysis; format: functional, cell-based
pIC50: −log10 of the molar value.
quantity: pIC50

In [3]: df
Out[3]:
                               query_smiles  quantity  numeric_readout
0  COc1ccc(-c2cc3ccccc3c(-c3cccc(N)c3)n2)cc1     pIC50             6.02
1  COc1cc(OC)cc(-c2cc3ccccc3c(-c3ccc(O)cc3)n2)c1     pIC50             6.11
2  COc1cc(OC)cc(-c2cc3ccccc3c(-c3cccc(O)c3)n2)c1     pIC50             6.12
3  COc1ccc(-c2cc3ccccc3c(-c3cccc(OC)c3)n2)cc1     pIC50             6.07
